Values compiled from ChEMBL document CHEMBL3120164.

# SYSTEM_NAME: Acetylcholinesterase (Homo sapiens)
# Sequence (P22303 whole entry): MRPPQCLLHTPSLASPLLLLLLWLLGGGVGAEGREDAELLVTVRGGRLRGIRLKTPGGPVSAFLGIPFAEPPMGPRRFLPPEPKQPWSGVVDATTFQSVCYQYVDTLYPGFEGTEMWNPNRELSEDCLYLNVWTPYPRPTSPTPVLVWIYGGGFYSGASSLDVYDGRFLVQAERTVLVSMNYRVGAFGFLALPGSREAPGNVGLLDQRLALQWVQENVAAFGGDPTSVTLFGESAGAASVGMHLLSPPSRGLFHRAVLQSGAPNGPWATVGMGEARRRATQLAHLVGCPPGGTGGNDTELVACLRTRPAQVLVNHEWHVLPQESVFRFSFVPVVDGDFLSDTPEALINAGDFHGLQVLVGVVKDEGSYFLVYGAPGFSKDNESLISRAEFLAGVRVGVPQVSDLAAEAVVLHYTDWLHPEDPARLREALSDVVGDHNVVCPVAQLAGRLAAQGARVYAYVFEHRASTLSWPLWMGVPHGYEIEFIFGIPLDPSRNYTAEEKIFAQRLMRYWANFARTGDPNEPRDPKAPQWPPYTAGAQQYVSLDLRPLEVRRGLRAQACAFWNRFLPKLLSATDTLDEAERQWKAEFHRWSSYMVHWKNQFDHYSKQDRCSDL
# PROCEDURE_SUMMARY: Inhibition of human recombinant AChE using acetylthiocholine iodide as substrate preincubated for 20 mins followed by substrate addition by Ellman's method
The following compounds are listed with their measured log10(IC50) values.
MEASURE: log10(IC50) (log10 of the value in µM)

{"CHEMICAL_SMILES": "CCOC(=O)c1ccc2nc(-c3cccnc3)c3c(c2c1)NCCC3", "log10(IC50)": 1.36}
{"CHEMICAL_SMILES": "CCNCc1ccc2nc(-c3cccnc3)c3c(c2c1)NCCC3", "log10(IC50)": 1.20}
{"CHEMICAL_SMILES": "CCNCc1ccc2nc(-c3ccc(Cl)cc3)c3c(c2c1)N(Cc1ccccc1)CCC3", "log10(IC50)": -0.03}
{"CHEMICAL_SMILES": "CCOC(=O)c1ccc2nc(-c3ccc(Cl)cc3)c3c(c2c1)N(Cc1ccccc1)C(=O)CC3", "log10(IC50)": 0.62}
{"CHEMICAL_SMILES": "CCNCc1ccc2nc(-c3ccc(Cl)cc3)c3c(c2c1)NCCC3", "log10(IC50)": -0.25}
